B1: DLC1 (parent)
chain: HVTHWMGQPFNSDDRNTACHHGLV

# Variants of: B1
# measurementDescription: protein stability index of a GFP-peptide fusion (GPS, HEK-293T) (PSI 1-6); higher = more stable;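 note: lentivirally expressed fusions sorted by FACS into six bins by GFP to DsRed ratio, PSI derived from sequencing read proportions per bin multiplied by bin number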
# setupConditions: c terminus: a fixed tail appended
Provide the recorded protein stability index for the entries that follow.

T17F
2.06

Hi team, please reply with protein stability index for each item in this list.
1. V24L
2. R15P
3. G7Q
4. L23V
5. H21S
6. L23N
7. H4C
8. D14C

Response given:
1: 2.35; 2: 1.82; 3: 2.07; 4: 2.39; 5: 2.23; 6: 2.37; 7: 2.49; 8: 1.68

Hi team, please reply with protein stability index for each item in this list.
1. T3S
2. H20Y

Response given:
1: 1.64; 2: 2.16

Hi team, please reply with protein stability index for each item in this list.
1. Q8M
2. T3I
3. H1Q
4. H1D
5. D13I

Response given:
1: 1.28; 2: 2.01; 3: 2.68; 4: 2.68; 5: 1.92

Value of protein stability index reported for the variant `G22E` is 2.59
